I'd be grateful if you could share measured Enzyme Activity Endpoint Assay: Fab′2 for these entries.
- tested.on: pooled human IgG

Prompt: Reported Enzyme Activity Endpoint Assay: Fab′2 for PRT-40 (protein) MANQEIRYSEVTPYHVTSVWTKGVTPPANFTQGEDVFHAPYVANQGWYDITKTFNGKDDLLCGAATAGNMLHWWFDQNKDQIKRYLEEHPEKQKINFNGEQMFDVKEAIDTKNHQLDSKLFEYFKEKAFPYLSTKHLGVFPDHVLDMFINGYRLSLTNHGPTPVKEGSKDPRGGIFDAVFTRGDQSKLLTSRHDFKEKNLKEISDLIKKELTEGKALGLSHTYANVRINHVINLWGADFDSNGNLKAIYVTDSDSNASIGMKKYFVGVNSAGKVAISAKEIKEDNIGAQVLGLFTLSTGQDSWNQTN : what is it?
Response: 42 ng/µL

Prompt: Reported Enzyme Activity Endpoint Assay: Fab′2 for PRT-597 (protein) MANQEIRYSEETPSTITSVWTKGVTPPTDFIQNEDVLHAPYIANQGWYDITKTFNGKDDLLCGAATAGNMLHWWFDQNKEQIENYLKKHPEKQKINFNGEQMFDVKEAIDTKDSQTDSALFEYFKDKAFPYLSTKHLGVFPDHVIDMFINGYRLSLTNHGPTPVKRGTKDPRGGIFDAVFTRGDQSKLLTSRHDFKEKTLNEISDLIKQELTEGKALGLSHTYANVRINHVINLWGADFNANGNLEAIYVTDSDSNASIGMKKYYVGVNSAGKVAISAKEIEGDNIGAQVLGLFTLSTGQDIWNQTNLEHHHHHH : what is it?
Response: 603 ng/µL
